- Tested on: Mus musculus
- TEST_PROTOCOL: Percent change from vehicle in locomotor activity in mice at 0.3 mg/kg (ip) in 4 h
- Type: functional
Measured Change, listed per entry for reference.
Please give a number only; it is taken to be in %.

Consider the following illustrative entries.
{"MOLECULE": "Cc1cc(C2C(c3ccc(Cl)cc3)CC3CCC2N3C)on1 (stereo not drawn)", "TARGET_ENTITY": "Mus musculus", "Change (%)": 392}
{"MOLECULE": "Cc1ccc(C2CC3CCC(C2c2cc(-c4ccc(Cl)cc4)no2)N3C)cc1 (stereo not drawn)", "TARGET_ENTITY": "Mus musculus", "Change (%)": 45}

Now take the following molecule into account.
IN: What value of Change has been reported for the following molecule? CCc1cc(C2C(c3ccc(Cl)cc3)CC3CCC2N3C)on1 (stereo not drawn)
OUT: 208

Hey, just so you know, these numbers are from ChEMBL document CHEMBL1148376.
